Assayed Target: receptors of AR type (Homo sapiens)
Sequence (P10275 whole entry): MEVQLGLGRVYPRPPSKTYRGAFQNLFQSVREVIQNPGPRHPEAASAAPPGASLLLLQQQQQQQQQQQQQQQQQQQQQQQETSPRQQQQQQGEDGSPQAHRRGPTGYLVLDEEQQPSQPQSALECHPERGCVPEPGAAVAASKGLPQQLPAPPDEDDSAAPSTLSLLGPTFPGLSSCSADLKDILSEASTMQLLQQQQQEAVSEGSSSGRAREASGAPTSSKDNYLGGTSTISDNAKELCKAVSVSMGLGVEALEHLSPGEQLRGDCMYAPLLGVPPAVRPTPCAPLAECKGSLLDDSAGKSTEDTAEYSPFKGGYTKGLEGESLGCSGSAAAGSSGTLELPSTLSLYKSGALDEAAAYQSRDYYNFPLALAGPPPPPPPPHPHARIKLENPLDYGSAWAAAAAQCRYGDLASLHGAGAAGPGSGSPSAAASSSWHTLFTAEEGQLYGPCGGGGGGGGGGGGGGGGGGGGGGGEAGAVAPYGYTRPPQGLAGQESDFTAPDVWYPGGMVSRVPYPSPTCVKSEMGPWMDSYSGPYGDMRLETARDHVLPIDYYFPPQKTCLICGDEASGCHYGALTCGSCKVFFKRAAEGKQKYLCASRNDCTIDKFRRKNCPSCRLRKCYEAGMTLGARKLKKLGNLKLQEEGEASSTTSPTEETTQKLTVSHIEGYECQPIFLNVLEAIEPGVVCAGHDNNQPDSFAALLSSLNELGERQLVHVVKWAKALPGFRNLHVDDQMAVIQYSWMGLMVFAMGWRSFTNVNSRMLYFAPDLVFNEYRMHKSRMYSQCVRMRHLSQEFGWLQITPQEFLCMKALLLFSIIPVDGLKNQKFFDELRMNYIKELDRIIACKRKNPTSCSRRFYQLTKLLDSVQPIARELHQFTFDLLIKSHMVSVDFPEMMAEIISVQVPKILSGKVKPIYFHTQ
pKd: −log10 of the molar value.

[
  {
    "Smiles Text": "Oc1ccc(F)cc1CNc1ccnc(Br)c1",
    "pKd": 7.70
  }
]
